The reported numbers originate from PubChem BioAssay (NCI).

System: MDA-MB-468 breast
Assay: NCI tumour cell line growth inhibition, 48 h
REPORTED METRIC: TGI (µM)
Record the value in µM, omitting the unit from your answer.

Below, each entry is followed by its recorded TGI result.
COMPOUND: CS(=O)(=O)c1nccc(-c2c(-c3ccc(F)c(OCCc4ccccc4)c3)nc3sccn23)n1
REPORTED METRIC: TGI
ENDPOINT RESULT: 7.36

COMPOUND: Cn1c2c(c3ccccc31)CCN1C[C@@H]3CCCC[C@H]3C[C@@H]21
REPORTED METRIC: TGI
ENDPOINT RESULT: 8.73

COMPOUND: CCN1C(=O)/C(=c2\sc3n(c2=O)C2C(NN=3)N(CC)C(=O)N2CC)c2ccccc21 (centres undefined)
REPORTED METRIC: TGI
ENDPOINT RESULT: 8.33

Task: Hello, please tell me recorded TGI for this one: CCc1ccc(Oc2c(-c3ccc(OCCc4cccc(C(F)(F)F)c4)cc3O)n[nH]c2C(F)(F)F)cc1
Output: 7.96

---

Tested on: MDA-MB-468 breast
Assay: NCI tumour cell line growth inhibition, 48 h; in the data active means GI50 below about 0.43 µM; inactive means the rest
Permitted responses: active, inactive

Consider the worked cases shown below.
COMPOUND: CC(C)C[C@H](NC(=O)[C@@H](Cc1ccccc1)n1ccc(Nc2ccccc2)cc1=O)B(O)O
CAT: active

COMPOUND: O=C(/C=C(/C=C/c1cccc2[nH]ccc12)OB(F)F)/C=C/c1cccc2[nH]ccc12
CAT: inactive

COMPOUND: Clc1nc(Cl)c2ncn(-c3ccccc3)c2n1
CAT: inactive

COMPOUND: C#C[C@]1(O)CC[C@H]2[C@@H]3CC=C4c5sc(-c6ccc(C)cc6)nc5CC[C@]4(C)[C@H]3CC[C@@]21C
CAT: inactive

COMPOUND: COc1ccc(-c2cc(=O)c3c(OC)c4ccoc4c(/C=C/C=O)c3o2)cc1
CAT: inactive

// next entry
Task: I would be grateful if you could indicate the recorded call for NC(=O)c1c[nH]c2ncnc(N)c12 .
Output: inactive

---

System: MDA-MB-468 breast
Assay: NCI tumour cell line growth inhibition, 48 h
Label 1 when TGI is at or above 7 µM; anything below gets -1.

Consider the worked cases shown below.
MOLECULE: Clc1nc(Cl)c2ncn(-c3ccccc3)c2n1
CAT: 1
//
MOLECULE: COc1ccc2[nH]c(C(=O)OCc3ccc4c(Br)cc(Br)c(O)c4n3)cc2c1
CAT: -1

Task: Answer whether TGI of Nc1nc(N)c2cc(S(=O)(=O)c3ccc4ccccc4c3)ccc2n1 is greater than or equal to 7 µM.
Output: 1

Task: Answer whether TGI of CCOc1cc(Cl)c(C(C)NC(=O)c2cccc(OC)c2)cc1OCC (stereo not given) is greater than or equal to 7 µM.
Output: 1

Task: Answer whether TGI of Cn1cc(-c2csc(-c3ccccc3)n2)c2cccnc21 is greater than or equal to 7 µM.
Output: 1

Task: Answer whether TGI of COc1cccc(C(=O)NNc2nc(Cl)nc(N3CCN(C(c4ccccc4)c4ccccc4)CC3)n2)c1 is greater than or equal to 7 µM.
Output: 1

Task: Answer whether TGI of COc1ccc(N=Nc2ccc(O)c(=O)cc2)cc1 is greater than or equal to 7 µM.
Output: 1

Task: Answer whether TGI of O=C1c2ccccc2C(=O)c2c1oc1cc(O)c(Cl)cc21 is greater than or equal to 7 µM.
Output: 1

Task: Answer whether TGI of NS(=O)(=O)c1ccc(N=Nc2c(O)[nH]c3ccc(C(=O)NCCCn4ccnc4)cc23)cc1 is greater than or equal to 7 µM.
Output: 1

Task: Answer whether TGI of CS(=O)(=O)Nc1cc(-c2ccc3ncc(C#N)c(Nc4ccc(F)c(Cl)c4)c3c2)cnc1Cl is greater than or equal to 7 µM.
Output: -1

---

System: MDA-MB-468 breast
Assay: NCI tumour cell line growth inhibition, 48 h
REPORTED METRIC: GI50

Below, each entry is followed by its recorded GI50 result.
COMPOUND: CS(=O)(=O)N1CCC(Nc2ncc(C(=O)c3c(F)cccc3F)c(N)n2)CC1
ENDPOINT RESULT: 12.4 µM
--
COMPOUND: CCN1C(=O)/C(=c2\sc3n(c2=O)C2C(NN=3)N(CC)C(=O)N2CC)c2ccccc21 (stereo unspecified)
ENDPOINT RESULT: 0.336 µM
--
COMPOUND: Nc1nc2ccc(CNc3ccc(C(=O)NC(CC(=O)O)C(=O)O)cc3)cc2c(=O)[nH]1 (stereo unspecified)
ENDPOINT RESULT: 9.09 µM
--
COMPOUND: Cc1c(O)cccc1C(=O)N[C@@H](CSc1ccccc1)[C@H](O)CN1C[C@H]2CCCC[C@H]2C[C@H]1C(=O)NC(C)(C)C
ENDPOINT RESULT: 3.89 µM
--
COMPOUND: CC(C)n1cc(-c2ccc3c(c2)N(C)CC3)c2c(NS(=O)(=O)c3ccn(C)n3)ccnc21
ENDPOINT RESULT: 41.1 µM

Task: Hello, please tell me recorded GI50 for this one: COc1cc(/C=C2\CCC/C(=C\c3cc(CN4CCCC4)c(O)c(OC)c3)C2=O)cc(CN2CCCC2)c1O
Output: 1.7 µM

Task: Hello, please tell me recorded GI50 for this one: COc1ccc(N=Nc2ccc(O)c(=O)cc2)cc1
Output: 2.61 µM

Task: Hello, please tell me recorded GI50 for this one: CCN1CCN(Cc2ccc(Nc3ncc(F)c(-c4cc(F)c5nc(C)n(C(C)C)c5c4)n3)nc2)CC1
Output: 6.95 µM

Task: Hello, please tell me recorded GI50 for this one: CSC1=CC(=O)c2ccccc2C1=O
Output: 0.26 µM

Task: Hello, please tell me recorded GI50 for this one: O=C(O)c1ccc(CSc2nc3ccccc3[nH]2)cc1
Output: > 100 µM

Task: Hello, please tell me recorded GI50 for this one: CCc1ccc(Oc2c(-c3ccc(OCCc4cccc(C(F)(F)F)c4)cc3O)n[nH]c2C(F)(F)F)cc1
Output: 1.87 µM
